molecular target: S1P1 (Homo sapiens (Human)); assay: 35S-GTPγS binding assay, S1P1 membranes; assay type: biochemical; settings: membranes from CHO cells expressing S1P1; read-out: S1P1 GTPyS EC50
Sequence (P21453 whole entry, species assumed): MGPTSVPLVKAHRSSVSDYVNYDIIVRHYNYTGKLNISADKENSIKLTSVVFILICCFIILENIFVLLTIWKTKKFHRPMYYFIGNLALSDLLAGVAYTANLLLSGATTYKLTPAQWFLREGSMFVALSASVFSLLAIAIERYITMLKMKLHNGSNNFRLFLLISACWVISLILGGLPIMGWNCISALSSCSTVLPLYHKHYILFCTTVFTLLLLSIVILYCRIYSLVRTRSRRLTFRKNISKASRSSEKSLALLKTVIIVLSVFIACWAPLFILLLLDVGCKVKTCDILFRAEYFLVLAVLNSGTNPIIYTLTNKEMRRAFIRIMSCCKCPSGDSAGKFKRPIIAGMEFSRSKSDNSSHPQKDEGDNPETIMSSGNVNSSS
Rule for this label: Fulfilled means EC50 is less than 900 nM; Not fulfilled means EC50 is at least 900 nM.

- Cc1cc(S(N)(=O)=O)ccc1NC(=O)c1cc(NC2CCCCC2)ncn1 [Example 1-18]: Fulfilled
- CCCN(CC1CC1)c1cc(C(=O)Nc2ccc(CNC)cc2C)ncn1 [Example 1-111]: Fulfilled
- CCCN(CC1CC1)c1cc(C(=O)Nc2ccc(CN)cc2)ncn1 [Example 1-88]: Fulfilled
- CCCN(CC1CC1)c1cc(C(=O)Nc2ccc(CN3CCC(O)CC3)cc2C)ncn1 [Example 1-140]: Not fulfilled
- CCCN(CC1CC1)c1cc(C(=O)Nc2ccc(CNCCOC)cc2C)ncn1 [Example 1-95]: Fulfilled
- O=C(Nc1ccnc2ccccc12)c1cc(NC2CCCCC2)ncn1 [Example 1-16]: Not fulfilled
- CCCN(CC1CC1)c1cc(C(=O)Nc2ccc3c(c2)CNCC3)ncn1 [Example 1-92]: Fulfilled
- Cc1cc(S(N)(=O)=O)ccc1NC(=O)c1cc(N(CC(C)C)C2CCCC2)ncn1 [Example 1-58]: Fulfilled
- CCCN(CC1CC1)c1cc(C(=O)Nc2ccc(CN(C)CC(=O)O)cc2C)ncn1 [Example 1-128]: Fulfilled
- CCCN(CC1CC1)c1cc(C(=O)Nc2ccc(S(=O)(=O)NCC(=O)O)cc2C)ncn1 [Example 1-103]: Fulfilled
- CCCN(CC1CC1)c1cc(C(=O)Nc2ccc3nn(CC(=O)N(C)C)cc3c2)ncn1 [Example 1-114]: Not fulfilled
- CCCN(CC1CC1)c1cc(C(=O)Nc2cccc(Cn3cccn3)c2)ncn1 [Example 1-148]: Not fulfilled
- CN(c1cc(C(=O)Nc2ccc(S(N)(=O)=O)cc2)ncn1)C1CCCCC1 [Example 1-30]: Fulfilled
- CCCN(CC1CC1)c1cc(C(=O)Nc2cccc3[nH]ncc23)ncn1 [Example 1-134]: Fulfilled
- CCCN(CC1CC1)c1cc(C(=O)Nc2ccc3[nH]nc(CCC(=O)O)c3c2)ncn1 [Example 1-129]: Not fulfilled
- CCCN(CC1CC1)c1cc(C(=O)Nc2ccc3[nH]nc(CCC(=O)OC)c3c2)ncn1 [Example 1-123]: Fulfilled
